Assay: yeast growth modulation, basal conditions, primary screen, YJM789 clinical isolate, OD600, 24 h (AID 1089);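 also: growth of clinical yeast isolate S. cerevisiae YJM 789 seeded 1000 cells per well; test concentration not given here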
Conditions: S. cerevisiae YJM789 growth, higher = more signal, called active from +8 up or from −8 down
Metric name: z-score
One number for each entry.

{"Structure as smiles": "COc1ccc(CC[C@H](O)c2cccc(OCC(=O)OC(C)(C)C)c2)cc1", "Observed result": -2.98}
{"Structure as smiles": "CC(C)C[C@@H]1NC(=O)[C@@H]2C[C@H](C(=O)NCCCC[N+](C)(C)C)[C@H](c3ccc(O)cc3)N2C1=O", "Observed result": -0.246}
{"Structure as smiles": "Cc1ccc(F)cc1S(=O)(=O)N[C@@H]1CCN(Cc2ccc3[nH]ccc3c2)C1", "Observed result": -0.765}

In: Please report the recorded z-score for CN(C)CCCC[C@@H]1NC(=O)[C@@H]2C[C@H](C(=O)NCc3ccc(F)cc3)[C@H](c3ccc(O)cc3)N2C1=O .
Out: 0.582

// data source = PubChem BioAssay
